Answer each item with its documented viability at 28.5 h, 10 µM.
# ASSAY_EXPLANATION: in vitro
# TEST_CONTEXT: human, hela cells, % viability
Please respond with the number in % and leave the unit unwritten.

### Prompt Provide viability at 28.5 h, 10 µM value for the following compound: CC(C)(CN)CN(Cc1ccccc1Br)C(=O)NCc1ccc(F)cc1 [CBK002469C]
### Response 92.9

### Prompt Provide viability at 28.5 h, 10 µM value for the following compound: CCc1cc(C(=O)OC)c(NC(=S)Nc2nc3cc(C)c(C)cc3s2)s1 [CBK267116]
### Response 81

### Prompt Provide viability at 28.5 h, 10 µM value for the following compound: CC1CCCN(Cc2ccccc2[N+](=O)[O-])C1 (stereo not drawn) [CBK261862]
### Response 102

### Prompt Provide viability at 28.5 h, 10 µM value for the following compound: COc1ccc(C(=O)Nc2cnn(CCCC(=O)O)c2)cc1 [CBK270052]
### Response 89.7

### Prompt Provide viability at 28.5 h, 10 µM value for the following compound: O=[N+]([O-])c1ccc(CN2CCN(c3nccnc3OCC3COc4ccccc4O3)CC2)cc1 (stereo not drawn) [CBK082791T]
### Response 107

### Prompt Provide viability at 28.5 h, 10 µM value for the following compound: CN(C)Cc1ccc(C(=O)N2CCCC2(C)C(=O)N(C)C)cc1 (stereo not drawn) [CBK281955]
### Response 90

### Prompt Provide viability at 28.5 h, 10 µM value for the following compound: O=C(NC1CCCCC1)c1cc(Br)cnc1NCCCn1ccnc1 [CBK076494]
### Response 99.7

### Prompt Provide viability at 28.5 h, 10 µM value for the following compound: CCOc1ccccc1NC(=O)NCCSCc1ccco1 [CBK057501]
### Response 94.5

### Prompt Provide viability at 28.5 h, 10 µM value for the following compound: CSc1ccc(CNC(=O)c2sc3nc(C)nc(N4CCCC4)c3c2C)cc1 [CBK294432]
### Response 96.8

### Prompt Provide viability at 28.5 h, 10 µM value for the following compound: OCC1CCCN1c1cc(Cl)nc2ccnn12 (stereo not drawn) [CBK037011]
### Response 95.7

### Prompt Provide viability at 28.5 h, 10 µM value for the following compound: COc1ccc(C(C)C)cc1-c1cncc(NCc2ccc3c(c2)OCO3)n1 [CBK065348]
### Response 95.2

### Prompt Provide viability at 28.5 h, 10 µM value for the following compound: CC(=O)Nc1ccc(CCC2(NC(=O)C3CC3)CCCCC2)cn1 [CBK282290]
### Response 87.4

### Prompt Provide viability at 28.5 h, 10 µM value for the following compound: Cc1cnn(C2CCCN(C(=O)Cc3cccs3)C2)c1 (stereo not drawn) [CBK304832]
### Response 102

### Prompt Provide viability at 28.5 h, 10 µM value for the following compound: C=CCn1c(Cc2csc(NC(=O)c3ccc(C)cc3)n2)n[nH]c1=S [CBK295292]
### Response 96.4

### Prompt Provide viability at 28.5 h, 10 µM value for the following compound: CC1CCCCC1NC(=O)Cn1ncn2c(cc3ccsc32)c1=O (stereo not drawn) [CBK284196]
### Response 91.8

### Prompt Provide viability at 28.5 h, 10 µM value for the following compound: N#Cc1cccnc1SC(C(=O)O)c1ccccc1 (stereo not drawn) [CBK286614]
### Response 106

### Prompt Provide viability at 28.5 h, 10 µM value for the following compound: O=C1/C(=C/c2c(NCCCn3ccnc3)nc3ccccn3c2=O)SC(=S)N1C1CCCCC1 [CBK264696]
### Response 95.2

### Prompt Provide viability at 28.5 h, 10 µM value for the following compound: CCOC(=O)C(CNC(=O)c1cnc(C)c(Br)c1Cl)Cc1ccccc1 (stereo not drawn) [CBK305247]
### Response 99.6
